Listed here are compounds together with their documented Difference of agonism efficacies (PR-B - PR-A).
Molecular target: hPR-B (progesterone receptor isoform B) (Homo sapiens, UniProt P06401)
Construct: expressed in transfected cells; host or cells: SK-N-MC (human neuroblastoma) cells, stably transfected with pRSVhPR-neo (built from pRC/RSV and hPR-1) and pMTV-LUC
Sequence (P06401 whole entry, canonical isoform): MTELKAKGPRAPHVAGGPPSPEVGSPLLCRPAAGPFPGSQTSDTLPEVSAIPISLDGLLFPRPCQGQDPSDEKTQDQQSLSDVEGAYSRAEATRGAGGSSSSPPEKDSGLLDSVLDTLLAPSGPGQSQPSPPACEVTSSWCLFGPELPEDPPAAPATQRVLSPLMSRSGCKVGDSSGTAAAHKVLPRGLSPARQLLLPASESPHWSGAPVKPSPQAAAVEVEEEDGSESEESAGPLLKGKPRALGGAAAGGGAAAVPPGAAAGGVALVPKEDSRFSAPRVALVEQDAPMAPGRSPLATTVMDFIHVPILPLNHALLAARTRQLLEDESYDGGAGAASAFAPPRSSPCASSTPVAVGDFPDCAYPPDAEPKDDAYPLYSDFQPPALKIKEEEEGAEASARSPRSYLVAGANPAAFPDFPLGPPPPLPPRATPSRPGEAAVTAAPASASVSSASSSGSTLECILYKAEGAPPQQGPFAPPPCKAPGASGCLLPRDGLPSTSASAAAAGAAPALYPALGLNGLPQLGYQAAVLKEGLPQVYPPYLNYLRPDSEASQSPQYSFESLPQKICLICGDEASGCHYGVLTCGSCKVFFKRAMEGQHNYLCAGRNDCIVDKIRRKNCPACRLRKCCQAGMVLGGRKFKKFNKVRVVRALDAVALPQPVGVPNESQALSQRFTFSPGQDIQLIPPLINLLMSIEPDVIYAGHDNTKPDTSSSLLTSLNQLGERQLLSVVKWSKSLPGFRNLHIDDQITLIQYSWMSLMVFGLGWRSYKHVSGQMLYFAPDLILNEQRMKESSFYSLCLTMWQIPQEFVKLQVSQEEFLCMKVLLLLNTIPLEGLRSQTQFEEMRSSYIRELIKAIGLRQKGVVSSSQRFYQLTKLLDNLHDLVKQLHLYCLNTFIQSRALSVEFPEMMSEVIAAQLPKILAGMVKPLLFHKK
Assay: Transactivation assay, SK-N-MC cells stably transfected with hPR-B and MTV-LUC reporter
Assay type: cell-based
Conditions: indicating PR-B selectivity
Field format: number, assumed %, no unit text.

Some compounds with known Difference of agonism efficacies (PR-B - PR-A) results, for comparison:
Briefly, Difference of agonism efficacies (PR-B - PR-A) measured for O=C1OCc2cc(NC(=O)C(O)(CC3(c4cccc(Br)c4)CC3)C(F)(F)F)ccc21 (stereo not drawn) : 25

Briefly, Difference of agonism efficacies (PR-B - PR-A) measured for C#C[C@]1(O)C=CC2C3CCC4=CC(=O)CC[C@@]45CCC=C(C[C@@]21CC)C35 (stereo partly drawn) : 23

Briefly, Difference of agonism efficacies (PR-B - PR-A) measured for CC(=O)O[C@]1(C(C)=O)CCC2C3C=C(Cl)C4=CC(=O)CC[C@@]45CC[C@@H](C[C@@]21C)C35 (stereo partly drawn) : 21

Briefly, Difference of agonism efficacies (PR-B - PR-A) measured for CC(=O)O[C@]1(C(C)=O)CCC2C3C[C@H](C)C4=CC(=O)CC[C@@]45CC=C[C@@H](C[C@@]21C)C35 (stereo partly drawn) : 40

Briefly, Difference of agonism efficacies (PR-B - PR-A) measured for CC(CC(O)(CNc1ccc2c(c1)COC2=O)C(F)(F)F)c1ccccc1 (stereo not drawn) : 17

***
Briefly, Difference of agonism efficacies (PR-B - PR-A) measured for `CC(=O)O[C@]1(C(C)=O)CC[C@H]2[C@@H]3C=C(C)C4=CC(=O)CC[C@]4(C)[C@H]3CC[C@@]21C` : 46
